Tested on: SF-268 CNS
Assay: NCI tumour cell line growth inhibition, 48 h
value.kind: GI50

input.smiles	value.kind	measured.value
Cc1nc2nc(C)n(CCN3CCOCC3)c(=O)c2c(-c2cccc([N+](=O)[O-])c2)c1C(=O)CCCCCCCCCCN1CCC(c2ccccc2)(c2ccccc2)CC1	GI50	2.26 mg/L
COC(=O)[C@H](Cc1cn(C)cn1)NC(=O)[C@H](CC(=O)OCc1ccccc1)NC(=O)Nc1cc(C(F)(F)F)cc(C(F)(F)F)c1	GI50	4.51 µM
COc1ccc(Cn2cc(COc3cc(/C=C/C(=O)c4cc(OC)c(OC)c(OC)c4)ccc3OC)nn2)cc1	GI50	3.75 µM
Oc1ccc2c(=S)cc(-c3ccc(Br)cc3)oc2c1O	GI50	2.18 µM
CCc1nc(C)cn1C(=O)OCc1nc2nc(Cl)nc(N3CCOCC3)c2[nH]1	GI50	1.53 µM
CCn1cc(CNc2ccc(C(=O)Nc3cc4cc(OC)c(OC)cc4c(C)n3)cc2)c(C)n1	GI50	33.6 µM
COc1cc(C(=O)/C=C/c2cc(-c3ccc4c(c3)OCO4)n[nH]2)cc(OC)c1OC	GI50	2.45 µM
O=C(Nc1nc(-c2ccc(Cl)cc2)cs1)c1cc(O)c(O)c(O)c1	GI50	146 µM
Nc1[nH]nc2nc(-c3cc(Cl)ccc3Cl)cc(-c3ccc(F)cc3)c12	GI50	18.2 µM
C=C1c2nc3ccccc3n2C=C(c2cccc(Cl)c2)N1Cc1ccc(OC)cc1	GI50	1.05 µM
Cc1ccc(/C=N/NC(=O)c2ccccc2Oc2ccccc2)o1	GI50	42.9 µM
CN1CCC2(CC1)N=C(SCC(=O)Nc1cnc3ccccc3c1)C(c1ccc(Br)cc1)=N2	GI50	3.46 µM

###

Tested on: HS 578T breast
Test: NCI tumour cell line growth inhibition, 48 h
# reported TGI; entries follow
value.kind: TGI

compound	measured.value
CCCCN=NNc1cn(C2OC(CO)C(O)C2O)c(=O)[nH]c1=O (configuration not stated)	> 100 µM
[N-]=[N+]=NC1C(O)C(CO)OC1n1ccc(N)nc1=O (configuration not stated)	> 625 µM
Cc1ccc(Sc2ccccc2C23OC(C)(C4C(=O)N(c5ccccc5)C(=O)C42)N(C)C3=O)cc1 (configuration not stated)	> 100 µM
Cc1[nH]c(C)c(CN(C)C)c1CN(C)C	> 100 µM
CC1(C)Cc2c(sc3[nH]c(=S)[nH]c(=S)c23)CS1	> 100 µM
Nc1ccccc1C#C/C=C\C#Cc1ccccc1C#CCO	27.8 µM
CC(=O)OCC1(C)C(O)CCC2(C)C1CCC1CC3CC12CCC3(O)CO (configuration not stated)	> 100 µM
CN1CCN(CCCNC(=O)c2c3c(n4ccccc24)C(=O)c2ncccc2C3=O)CC1	51.8 µM
CNC(=O)ON(C(C)=O)C(=O)NC	216 µM
CC1=CC(=O)N(c2cccc3c(N4C(=O)C=C(C)C4=O)cccc23)C1=O	> 100 µM
CCN(CC)C1Oc2cc3c(cc2C(c2cc(OC)c(O)c(OC)c2)C1C)OCO3 (configuration not stated)	50.9 µM
O=C1C=C(NCCO)c2nccc3c2c1nc1ccccc13	> 100 µM
COc1ccc(OC)c(Nc2nc3nonc3nc2Nc2cccc(Br)c2)c1	8.14 µM
CN1CCN(c2cc3nc(-c4ccc(Cl)cc4)[nH]c3cc2F)CC1	42.6 µM
COCn1cc(C2=C(C)C(=O)C(C)=C(C)C2=O)cn1	> 100 µM
C=C1N(S(=O)(=O)c2ccc(C)cc2)C(=O)OCC12CCCC2	> 100 µM
CCN1CCN(c2nc(C)cc(NCc3cc(Nc4ccnc5cc(Cl)ccc45)ccc3F)n2)CC1	5.29 µM
NS(=O)(=O)c1ccc(N=Nc2ccc[nH]c2=O)cc1	> 100 µM
COc1cc2c(cc1OC)C(C(CCCCCC(CCC(C)C)C1NCCc3cc(OC)c(OC)cc31)CCC(C)C)NCC2 (configuration not stated)	3.43 µM
COc1cccc2c1C(=O)c1c(O)c3c(c(O)c1C2=O)C[C@@](O)(C(=O)CO)CC3OC1CC(N)C(OC2CCCCO2)C(C)O1 (some centres not stated)	1.11 µM
CC(C)(C)[Si](C)(C)OCC1OC(n2cnc3c(=O)[nH]cnc32)CC1O (configuration not stated)	> 100 µM
O=C(Nc1ccncc1)C(=O)c1cn(S(=O)(=O)c2cccc(Cl)c2)c2ccccc12	> 100 µM

###

# reported TGI; entries follow
Tested on: 786-0 renal
Assay: NCI tumour cell line growth inhibition, 48 h

compound	TGI
COC(=O)c1cc(CC2Cc3cc4c(cc3C2=O)CCC4)cc2c1CCC2 (configuration not stated)	> 100 µM
CN1CCC2(c3ccccc3)CC(=O)/C(=C/c3ccc(Cl)c(Cl)c3)C1C2 (configuration not stated)	5.35 µM
N#Cc1c2ccccc2c(Cc2ccc3c(c2)OCCOCCOCCOCCOCCO3)c2ccccc12	25.4 µM
CC(=O)[CH-]C(=O)c1ccccc1.CC(=O)[CH-]C(=O)c1ccccc1.Cl.[O-]c1ccnc2ccccc12.[O-]c1ccnc2ccccc12.[Ti+4]	> 100 µM
C/C=C/C(=O)Oc1cccc2cccnc12	> 100 µM
CCCC(=O)OCC1OC(n2cc(F)c(=O)[nH]c2=O)CC1O (configuration not stated)	> 10 µM
O=c1[nH]c2c(c(=O)[nH]1)SC(c1ccccc1)C2 (configuration not stated)	> 100 µM
COc1ccc(Oc2nc3cc(N)cc(N)c3nc2-c2ccccc2)cc1	> 100 µM
Oc1ccc2c(=S)cc(-c3ccc(Br)cc3)oc2c1O	11.1 µM
CC1=NN(c2ccc(S(=O)(=O)O)cc2)C2(C1)C(Cl)C(=O)N2c1nc2ccccc2s1 (configuration not stated)	> 100 µM
CCCCCCCCOC(=O)C12Oc3ccc(-c4ccc5c(c4O)C(O)=C4C(=O)CC(C)C(O)C4(C(=O)OCCCCCCCC)O5)c(O)c3C(O)=C1C(=O)CC(C)C2O (configuration not stated)	> 100 µM
CSC1=NN(C(C)=O)C(C(OC(C)=O)C(OC(C)=O)C(OC(C)=O)C(COC(C)=O)OC(C)=O)S1 (configuration not stated)	> 100 µM
CCOC(=O)C1=C(OC(OCC)C([Se]c2ccccc2)C(C)C)CCC1 (configuration not stated)	20.6 µM
COc1ccc2c(c1)CCc1c-2[nH]c2cc3c(cc2c1=O)OCO3	> 100 µM
Cc1ccccc1NC(=O)/C(=N\NC(N)=S)C(C#N)c1ccccc1 (configuration not stated)	> 100 µM
Cc1[nH]c(C)c(CN(C)C)c1CN(C)C	> 100 µM
CC(Br)CN1CCOCC1 (configuration not stated)	> 100 µM
O=C(Nc1nc(-c2ccc(Cl)cc2)cs1)c1cc(O)c(O)c(O)c1	1020 µM
CC(C)(C)[Si](C)(C)OCC1OC(n2cnc3c(=O)[nH]cnc32)CC1O (configuration not stated)	> 100 µM
COc1ccc(OC)c(Nc2nc3nonc3nc2Nc2cccc(Br)c2)c1	13.8 µM
O=C(NC1CC1)c1c(O)[nH]c(=S)[nH]c1=O	> 100 µM
O=S1(=O)c2ccccc2N(c2ccccc2)c2nnnn21	32.7 µM

###

Tested on: SNB-19 CNS
Assay: NCI tumour cell line growth inhibition, 48 h
# reported TGI; entries follow

compound	measurement.target	TGI
ICC1CCCO1 (stereo not given)	SNB-19 CNS	> 100 µM
COC(=O)[C@@H]1C[C@@H](O)CN1C(=O)c1ccc([N+](=O)[O-])cc1[N+](=O)[O-]	SNB-19 CNS	> 100 µM
c1ccc(-c2[nH]ncc2-c2ccnc(-c3ccc(OCCN4CCOCC4)cc3)c2)nc1	SNB-19 CNS	> 25 µM
Oc1ccc2c(=S)cc(-c3ccc(Br)cc3)oc2c1O	SNB-19 CNS	> 100 µM
O=S(=O)(NC1=NCCN1C(=S)SN1CCn2c1nsc2=S)c1ccc(Oc2ccccc2)cc1	SNB-19 CNS	> 100 µM
Cc1sc(C(=O)c2cncnc2N[C@@H]2C[C@H](COS(N)(=O)=O)[C@@H](O)C2)cc1[C@@H]1NCCc2ccc(Cl)cc21	SNB-19 CNS	28.8 µM
Cc1cc(O)c2c(c1)C(=O)c1c(c(O)cc(O)c1-c1c(O)cc(O)c3c1C(=O)c1cc(C)cc(O)c1C3=O)C2=O	SNB-19 CNS	12.4 µM
Clc1cccc(-c2nc3cccc4c3n2Cc2ncccc2-4)c1	SNB-19 CNS	> 100 µM
CC(=O)OCC1(C)C(O)CCC2(C)C1CCC1CC3CC12CCC3(O)CO (stereo not given)	SNB-19 CNS	> 100 µM
COC(=O)/C=C/CCC#Cc1ccccc1C#CCC/C=C/C(=O)OC	SNB-19 CNS	> 100 µM

###

System: DLD-1 colon
Assay: NCI tumour cell line growth inhibition, 48 h
value.kind: TGI (µM)

compound	measurement.target	inequality.operator	measured.value
CN(C)NC(=O)/C(=C/c1ccc(Cl)cc1)NC(=O)c1ccccc1	DLD-1 colon	>	100
Cc1cccc(NC(=O)C(=O)C(C2OC(=O)c3ccccc32)[N+](=O)[O-])c1C (centres undefined)	DLD-1 colon	=	23.1
Cc1cc(O)c2c(c1)C(=O)c1c(c(O)cc(O)c1-c1c(O)cc(O)c3c1C(=O)c1cc(C)cc(O)c1C3=O)C2=O	DLD-1 colon	=	59.5
C=CCCCCCCCCCP(=O)(c1ccccc1)c1ccc2c(c1)OCCOCCOCCOCCO2 (centres undefined)	DLD-1 colon	=	27.3
CC1(C)c2ccccc2N2C(c3ccccc3)=NOC21C (centres undefined)	DLD-1 colon	>	100
Cc1cccc(C)c1NC(=O)CCC(=O)NC(N)=NC#N	DLD-1 colon	>	100
O=C(O)CCC(NC(=O)c1ccc(Nc2cnc3cc(C(F)(F)F)ccc3n2)cc1)C(=O)O (centres undefined)	DLD-1 colon	>	100
N#Cc1c2ccccc2c(Cc2ccc3c(c2)OCCOCCOCCOCCOCCO3)c2ccccc12	DLD-1 colon	=	22
COc1ccc2c(c1)CCc1c-2[nH]c2cc3c(cc2c1=O)OCO3	DLD-1 colon	>	100
